Just for reference, the supplement of paper PMC6555819 is where these values come from.

Reported PBM binding z-score is given for each of the following sequences.
- System: PPARg:RXRa 30nM:10nM, anti-RXR (NR concentration 30 nM, RXRa partner concentration 10 nM)
- PROTOCOL_TEXT: PBM binding z-score (relative to random genomic background probes); higher = stronger binding; sequences stand for … in GC…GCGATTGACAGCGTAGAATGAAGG
Answer with the value's number alone.

Known results for sequences:
SEQUENCE_INPUT: ATATGTAGGTTAGGGGTCATTCAGGTTGGTTCGC
TARGET_DESC: PPARg:RXRa 30nM:10nM, anti-RXR (NR concentration 30 nM, RXRa partner concentration 10 nM)
VAL: 10.2

SEQUENCE_INPUT: CCTTACGGGTCAAGGTTATAGCCCGGGTGGTACG
TARGET_DESC: PPARg:RXRa 30nM:10nM, anti-RXR (NR concentration 30 nM, RXRa partner concentration 10 nM)
VAL: 1.37

SEQUENCE_INPUT: CCTAGTTGGTCAAGGTCACACCCGCTATAGGTAC
TARGET_DESC: PPARg:RXRa 30nM:10nM, anti-RXR (NR concentration 30 nM, RXRa partner concentration 10 nM)
VAL: 1.13

SEQUENCE_INPUT: ATATGTAGGTTAGCTGAGGTCATTCAGACTAGGC
TARGET_DESC: PPARg:RXRa 30nM:10nM, anti-RXR (NR concentration 30 nM, RXRa partner concentration 10 nM)
VAL: 2.35

SEQUENCE_INPUT: CCAACTAGGTCAAAGGACAGTGAAAGGCGACGTA
TARGET_DESC: PPARg:RXRa 30nM:10nM, anti-RXR (NR concentration 30 nM, RXRa partner concentration 10 nM)
VAL: 6.76

(Q) Indicate its recorded PBM binding z-score; the sequence in question is CCTACTGGGCCAAAAAGGTCATTGATGCCGATAA
(A) 1.41

###

The sequences listed here are annotated with their PBM binding z-score.
- Test system: FXR:RXRa (NR concentration 270 nM, RXRa partner concentration 90 nM)
- PROTOCOL_TEXT: PBM binding z-score (relative to random genomic background probes); higher = stronger binding; sequences stand for … in GC…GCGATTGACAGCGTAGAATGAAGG
Just the number, please.

Some solved cases for reference:
SEQUENCE_INPUT: CCTTACGGGTCACTCCAGGTCATAGCATCGGAGT
PBM binding z-score: 5.36
--
SEQUENCE_INPUT: AATACAGGGTCATCGTAGGTCAGAGTACGCACAG
PBM binding z-score: 7.7
--
SEQUENCE_INPUT: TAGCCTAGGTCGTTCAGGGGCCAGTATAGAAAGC
PBM binding z-score: 0.616
--
SEQUENCE_INPUT: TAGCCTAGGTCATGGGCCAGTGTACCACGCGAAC
PBM binding z-score: 4.82
--
SEQUENCE_INPUT: CCTACTGGGCCATTCAGAGGGCATTGATCATATG
PBM binding z-score: -0.338

Moving on to another sequence below.
(Q) // Input: ATATGTAGGTTGGGGTCATTCAGAAAGTAGGGAA . Output its PBM binding z-score only.
(A) 5.99

###

- System: VDR:RXRa (NR concentration 270 nM, RXRa partner concentration 90 nM)
- PROTOCOL_TEXT: PBM binding z-score (relative to random genomic background probes); higher = stronger binding; sequences stand for … in GC…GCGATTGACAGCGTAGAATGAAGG
REPORTED_PROPERTY: PBM binding z-score
Answer with the value's number alone.

SEQUENCE_INPUT: TATACAAGGTCAAAGGCCAGAGTACGAATGTCGA
PBM binding z-score: 4.83

(Q) Fill: PBM binding z-score (VDR:RXRa (NR concentration 270 nM, RXRa partner concentration 90 nM)) for this sequence TATTCAGGGTCAAAGGCCAGAGTACGAATGTCGA
(A) 5.12

###

- Test system: THRa homodimer (NR concentration 90 nM)
- PROTOCOL_TEXT: PBM binding z-score (relative to random genomic background probes); higher = stronger binding; sequences stand for … in GC…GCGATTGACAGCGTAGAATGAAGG
PBM binding z-score listing for selected sequences.
Answer with a number only.

Some entries whose results are on file:
SEQUENCE_INPUT: CGAACTAGGTCGTCCAGGACAGTGAATACATTGA
VAL: 0.874
//
SEQUENCE_INPUT: TAGCCTAGTTCATTCAGGGGCCAGTATAGAAAGC
VAL: -0.0964
//
SEQUENCE_INPUT: CGAACTAGGTCAAGGACAGTAAATCTCCGCACGC
VAL: 2.01

(Q) // fetch PBM binding z-score given entry ATCGAAAGGTCGACGAGGTGAGTAAACACCGTTT
(A) 0.706

(Q) Identify PBM binding z-score associated with the sequence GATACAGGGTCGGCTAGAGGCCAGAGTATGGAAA
(A) -0.62

(Q) Please indicate PBM binding z-score recorded for AGTCAAAGTTCATCTAGGTCACGTAAGATATGCT
(A) 2.83

(Q) For the sequence CGTCCAAGGTCAAAGGTCATTGAAGAGATGACGG , give its measured PBM binding z-score value.
(A) 3.04

(Q) Give the reported PBM binding z-score for this sequence. CCTACTGGGCCACTAAAGGTCATTGATTCAGTGA
(A) 0.905

(Q) Item CAAACGAGGTCACGAAAGGTCAAAGTCGAATGAC : provide PBM binding z-score
(A) 4.41

(Q) Let me know recorded PBM binding z-score for CAAACTAGTTCAAGAGGTCAAAGTCCGCTTCCCG , thanks.
(A) 1.92

(Q) Identify measured PBM binding z-score corresponding to AGTCAAAGTTTATCTAGGTAACGTAAGATATGCT
(A) -0.0604

(Q) Supply recorded PBM binding z-score for CGAACTAGGTCAAGGGACAGTGAAAGGCGACGTA here.
(A) 0.755

###

- Test system: THRa:RXRa (NR concentration 90 nM, RXRa partner concentration 90 nM)
- PROTOCOL_TEXT: PBM binding z-score (relative to random genomic background probes); higher = stronger binding; sequences stand for … in GC…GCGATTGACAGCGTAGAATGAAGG
Rule: PBM binding z-score of 4 or more gives label 1; anything lower gives label 0.

Solved entries (count: 8):
SEQUENCE_INPUT: GATACAGGGTCAGCTACAGGCCAGAGTATGGAAA
TARGET_DESC: THRa:RXRa (NR concentration 90 nM, RXRa partner concentration 90 nM)
ASSIGNED_CLASS: label 0

SEQUENCE_INPUT: CGTCCAAGGTCATAGAGGTCAGTGAATGCCGAGT
TARGET_DESC: THRa:RXRa (NR concentration 90 nM, RXRa partner concentration 90 nM)
ASSIGNED_CLASS: label 1

SEQUENCE_INPUT: CTATGTAGGTTAAGGGAGTCATTCAGTTTGAAAG
TARGET_DESC: THRa:RXRa (NR concentration 90 nM, RXRa partner concentration 90 nM)
ASSIGNED_CLASS: label 0

SEQUENCE_INPUT: GCTTACGGGTCCAAGGTTATAGCATGAATAGAAT
TARGET_DESC: THRa:RXRa (NR concentration 90 nM, RXRa partner concentration 90 nM)
ASSIGNED_CLASS: label 0

SEQUENCE_INPUT: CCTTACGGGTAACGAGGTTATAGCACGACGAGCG
TARGET_DESC: THRa:RXRa (NR concentration 90 nM, RXRa partner concentration 90 nM)
ASSIGNED_CLASS: label 0

SEQUENCE_INPUT: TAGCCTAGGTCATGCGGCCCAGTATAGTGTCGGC
TARGET_DESC: THRa:RXRa (NR concentration 90 nM, RXRa partner concentration 90 nM)
ASSIGNED_CLASS: label 0

SEQUENCE_INPUT: CAAAATAGGTCACGAAAGGTCAAAGTCGAATGAC
TARGET_DESC: THRa:RXRa (NR concentration 90 nM, RXRa partner concentration 90 nM)
ASSIGNED_CLASS: label 1

SEQUENCE_INPUT: CAAACAAGGTCACAGAGGTCAAAGTCCGTGCGTA
TARGET_DESC: THRa:RXRa (NR concentration 90 nM, RXRa partner concentration 90 nM)
ASSIGNED_CLASS: label 1

(Q) Please check the record TCTTGTAGATCAACAGGAGGTTAATAAAGATCGA and state if its PBM binding z-score is at or above 4.
(A) label 0

(Q) Reported PBM binding z-score at or above 4? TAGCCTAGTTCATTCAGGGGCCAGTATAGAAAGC
(A) label 0

(Q) API: above_or_equal(metric=PBM binding z-score, cutoff=4) for item CTATGTAGGTTACGGGGGTCATTCAGTTTGAAAG
(A) label 1
